Every entry's value here was drawn from patent US20080161309A1.

subject of test: human norepinephrine transporter (hNET) (Homo sapiens, UniProt P23975)
Sequence (P23975 whole entry): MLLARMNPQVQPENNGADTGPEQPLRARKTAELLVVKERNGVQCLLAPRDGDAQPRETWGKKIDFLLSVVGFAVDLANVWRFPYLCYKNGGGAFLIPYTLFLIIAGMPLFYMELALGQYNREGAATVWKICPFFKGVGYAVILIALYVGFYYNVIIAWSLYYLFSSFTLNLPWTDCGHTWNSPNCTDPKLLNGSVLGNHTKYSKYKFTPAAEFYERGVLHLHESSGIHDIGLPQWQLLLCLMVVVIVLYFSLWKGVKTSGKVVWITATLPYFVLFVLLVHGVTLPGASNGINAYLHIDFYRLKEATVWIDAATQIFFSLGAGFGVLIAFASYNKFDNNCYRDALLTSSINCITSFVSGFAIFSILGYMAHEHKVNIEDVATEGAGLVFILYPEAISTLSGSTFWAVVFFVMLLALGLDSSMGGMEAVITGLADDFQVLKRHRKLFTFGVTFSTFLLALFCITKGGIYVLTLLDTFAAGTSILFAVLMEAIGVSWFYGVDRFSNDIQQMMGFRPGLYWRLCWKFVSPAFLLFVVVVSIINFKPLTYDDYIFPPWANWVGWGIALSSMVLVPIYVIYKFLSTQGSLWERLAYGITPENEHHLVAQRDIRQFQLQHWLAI
pKi: −log10 of the molar value. Structures can show the parent of a compound that is named as a salt.
# pKi >= 8 gives criterion met, anything below gives criterion not met

Query string: Decide: pKi of COc1cccc([C@H](Oc2ccc(Cl)cc2OC)[C@@H]2CNCCO2)c1 [Example 61, hydrochloride] >= 8?
Result string: criterion not met

Query string: Decide: pKi of Fc1ccc(O[C@@H](c2ccc(Cl)cc2)[C@@H]2CNCCO2)c(Cl)c1 [Example 72, hydrochloride] >= 8?
Result string: criterion not met

Query string: Decide: pKi of Clc1ccc(Cl)c(O[C@@H](c2ccccc2)[C@@H]2CNCCO2)c1 [Example 89, fumarate] >= 8?
Result string: criterion not met

Query string: Decide: pKi of FC(F)(F)c1ccc(Cl)c(O[C@@H](c2ccccc2)[C@@H]2CNCCO2)c1 [Example 88, fumarate] >= 8?
Result string: criterion not met

Query string: Decide: pKi of COc1cc(C)ccc1O[C@@H](c1cccc(Cl)c1)[C@@H]1CNCCO1 [Example 101, fumarate] >= 8?
Result string: criterion not met

Query string: Decide: pKi of COc1cc(Cl)ccc1O[C@@H](c1ccc(Cl)cc1)[C@@H]1CNCCO1 [Example 73, hydrochloride] >= 8?
Result string: criterion not met

Query string: Decide: pKi of COc1cc(C)ccc1O[C@@H](c1cccc(C)c1)[C@@H]1CNCCO1 [Example 55, hydrochloride] >= 8?
Result string: criterion not met

Query string: Decide: pKi of Cc1ccc(Cl)c(O[C@@H](c2ccccc2)[C@@H]2CNCCO2)c1 [Example 87, fumarate] >= 8?
Result string: criterion not met

Query string: Decide: pKi of COc1cccc([C@H](Oc2ccc(F)cc2Cl)[C@@H]2CNCCO2)c1 [Example 63, hydrochloride] >= 8?
Result string: criterion met

Query string: Decide: pKi of COc1cc(F)ccc1O[C@@H](c1cccc(C)c1)[C@@H]1CNCCO1 [Example 57, hydrochloride] >= 8?
Result string: criterion not met

Query string: Decide: pKi of Fc1cccc([C@H](Oc2ccc(C(F)(F)F)cc2)[C@@H]2CNCCO2)c1 [Example 67, hydrochloride] >= 8?
Result string: criterion not met

Query string: Decide: pKi of Fc1ccc(O[C@@H](c2cccc(Cl)c2)[C@@H]2CNCCO2)c(Cl)c1 [Example 102, fumarate] >= 8?
Result string: criterion not met

Query string: Decide: pKi of COc1cc(C)ccc1O[C@H](c1ccc(F)cc1)[C@H]1CNCCO1 [Example 43, hydrochloride] >= 8?
Result string: criterion not met

Query string: Decide: pKi of COc1cc(C)ccc1O[C@@H](c1ccccc1)[C@@H]1CNCCO1 [Example 40, hydrochloride] >= 8?
Result string: criterion met

Query string: Decide: pKi of Fc1ccc([C@H](Oc2ccc(F)cc2Cl)[C@@H]2CNCCO2)cc1 [Example 74, hydrochloride] >= 8?
Result string: criterion not met

Query string: Decide: pKi of Fc1ccc(O[C@@H](c2ccccn2)[C@@H]2CNCCO2)c(Cl)c1 [Example 105, fumarate] >= 8?
Result string: criterion met

Query string: Decide: pKi of COc1cc(C(F)(F)F)ccc1O[C@@H](c1ccccc1)[C@@H]1CNCCO1 [Example 99, fumarate] >= 8?
Result string: criterion not met

Query string: Decide: pKi of Clc1cc(Cl)c(O[C@@H](c2ccccc2)[C@@H]2CNCCO2)c(Cl)c1 [Example 98, fumarate] >= 8?
Result string: criterion not met

Query string: Decide: pKi of COc1cc(Cl)ccc1O[C@@H](c1cccc(Cl)c1)[C@@H]1CNCCO1 [Example 100, fumarate] >= 8?
Result string: criterion not met

Query string: Decide: pKi of Fc1cccc([C@H](Oc2ccc(Cl)cc2F)[C@@H]2CNCCO2)c1 [Example 44, hydrochloride] >= 8?
Result string: criterion not met

* * *

subject of test: human serotonin transporter (hSERT) (Homo sapiens, UniProt P31645)
Construct: expressed in transfected cells; host or cells: HEK-293, membranes
Sequence (P31645 whole entry): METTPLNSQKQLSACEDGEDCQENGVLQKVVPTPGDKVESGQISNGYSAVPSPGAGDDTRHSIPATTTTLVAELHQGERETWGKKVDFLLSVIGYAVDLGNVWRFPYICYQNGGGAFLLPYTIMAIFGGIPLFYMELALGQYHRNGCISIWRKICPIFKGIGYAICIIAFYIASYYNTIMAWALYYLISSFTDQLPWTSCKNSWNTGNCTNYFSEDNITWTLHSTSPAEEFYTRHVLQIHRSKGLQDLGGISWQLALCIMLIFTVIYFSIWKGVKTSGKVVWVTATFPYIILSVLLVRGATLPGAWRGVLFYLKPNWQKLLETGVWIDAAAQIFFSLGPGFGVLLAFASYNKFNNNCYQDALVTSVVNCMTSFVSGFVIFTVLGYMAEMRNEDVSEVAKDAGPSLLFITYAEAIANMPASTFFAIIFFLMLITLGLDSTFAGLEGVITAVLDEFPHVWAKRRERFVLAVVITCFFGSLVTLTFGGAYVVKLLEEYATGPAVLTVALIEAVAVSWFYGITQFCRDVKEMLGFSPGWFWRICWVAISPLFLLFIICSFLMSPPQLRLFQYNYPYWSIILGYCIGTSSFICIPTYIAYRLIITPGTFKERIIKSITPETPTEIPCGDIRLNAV
test: hSERT receptor binding, [125I]-RTI-55, HEK-293 membranes
assay conditions: [125I]-RTI-55, HEK-293 membranes, Cheng-Prusoff; read-out: SERT Ki
Description: Cell pastes of HEK-293 cells transfected with a human serotonin transporter cDNA were prepared. […] Aliquots of membranes (−2.5 mg/ml protein) were stored in liquid nitrogen until used. The reaction was incubated and gently agitated for 90 minutes at room temperature, and terminated by removal of assay volume. […] Test compounds were run in duplicate, and specific binding was defined as the difference between binding in the presence and absence of 10 μM citalopram. […]
Where a name gives a salt, the structure may show the parent alone.
Definition: the class of an entry is the range in band A: < 70 nM; band B: ≥ 70 nM and < 400 nM; band C: ≥ 400 nM that contains its Ki.

Query string: Each compound maps to one class by Ki. Which class for COc1ccc(C)cc1O[C@@H](c1cccc(F)c1)[C@@H]1CNCCO1 [Example 51, hydrochloride] ?
Result string: band C

Query string: Each compound maps to one class by Ki. Which class for Fc1cc(F)c(O[C@@H](c2ccccc2)[C@@H]2CNCCO2)c(F)c1 [Example 86, fumarate] ?
Result string: band C

Query string: Each compound maps to one class by Ki. Which class for Fc1ccc(Cl)c(O[C@@H](c2cccc(Cl)c2)[C@@H]2CNCCO2)c1 [Example 53, hydrochloride] ?
Result string: band B

Query string: Each compound maps to one class by Ki. Which class for Cc1ccccc1O[C@@H](c1cccc(F)c1)[C@@H]1CNCCO1 [Example 49, hydrochloride] ?
Result string: band B

Query string: Each compound maps to one class by Ki. Which class for Fc1cccc([C@H](Oc2ccc(Cl)cc2F)[C@@H]2CNCCO2)c1 [Example 44, hydrochloride] ?
Result string: band B

Query string: Each compound maps to one class by Ki. Which class for COc1c(Cl)c(Cl)cc(Cl)c1O[C@@H](c1ccccc1)[C@@H]1CNCCO1 [Example 91, fumarate] ?
Result string: band A

Query string: Each compound maps to one class by Ki. Which class for COc1ccc(Cl)cc1O[C@@H](c1ccccc1)[C@@H]1CNCCO1 [Example 84, fumarate] ?
Result string: band C

Query string: Each compound maps to one class by Ki. Which class for Fc1cccc([C@H](Oc2c(F)cc(F)cc2F)[C@@H]2CNCCO2)c1 [Example 65, hydrochloride] ?
Result string: band C

Query string: Each compound maps to one class by Ki. Which class for Cc1c(Cl)cccc1O[C@@H](c1ccccc1)[C@@H]1CNCCO1 [Example 82, fumarate] ?
Result string: band A

* * *

subject of test: human serotonin transporter (hSERT) (Homo sapiens, UniProt P31645)
Construct: expressed in transfected cells; host or cells: HEK-293, membranes
test: hSERT receptor binding, [125I]-RTI-55, HEK-293 membranes
assay conditions: [125I]-RTI-55, HEK-293 membranes, Cheng-Prusoff; read-out: SERT Ki
Method: Cell pastes of HEK-293 cells transfected with a human serotonin transporter cDNA were prepared. […] Aliquots of membranes (−2.5 mg/ml protein) were stored in liquid nitrogen until used. The reaction was incubated and gently agitated for 90 minutes at room temperature, and terminated by removal of assay volume. […] Test compounds were run in duplicate, and specific binding was defined as the difference between binding in the presence and absence of 10 μM citalopram. […]
Counter-ions that a name gives are not always drawn.
assay endpoint: Ki (nM)
Supply the numeric figure in nM, leaving out any unit text.

Query string: # return recorded Ki for entry COc1cc(C)ccc1O[C@@H](c1cccc(Cl)c1)[C@@H]1CNCCO1 [Example 101, fumarate]
Result string: 67.1

Query string: # return recorded Ki for entry COc1cc(Cl)ccc1O[C@@H](c1cccc(C)c1)[C@@H]1CNCCO1 [Example 54, hydrochloride]
Result string: 41.7

Query string: # return recorded Ki for entry FC(F)(F)c1ccc(Cl)c(O[C@@H](c2ccccc2)[C@@H]2CNCCO2)c1 [Example 88, fumarate]
Result string: 760

Query string: # return recorded Ki for entry COc1cccc([C@H](Oc2cc(F)ccc2Cl)[C@@H]2CNCCO2)c1 [Example 69, hydrochloride]
Result string: 687

Query string: # return recorded Ki for entry COc1ccc(Cl)c(O[C@@H](c2ccccc2)[C@@H]2CNCCO2)c1 [Example 97, fumarate]
Result string: 134

Query string: # return recorded Ki for entry Fc1cc(Cl)ccc1O[C@@H](c1ccccn1)[C@@H]1CNCCO1 [Example 104, fumarate]
Result string: 486

Query string: # return recorded Ki for entry COc1cc(C)ccc1O[C@@H](c1ccc(F)cc1)[C@@H]1CNCCO1 [Example 42, hydrochloride]
Result string: 69.2

Query string: # return recorded Ki for entry Fc1c(Cl)cccc1O[C@@H](c1ccccc1)[C@@H]1CNCCO1 [Example 80, fumarate salt]
Result string: 127

Query string: # return recorded Ki for entry COc1cc(Cl)ccc1O[C@@H](c1cccc(Cl)c1)[C@@H]1CNCCO1 [Example 100, fumarate]
Result string: 32.9

Query string: # return recorded Ki for entry COc1cc(C)ccc1O[C@@H](c1cccc(F)c1)[C@@H]1CNCCO1 [Example 79, hydrochloride]
Result string: 100

Query string: # return recorded Ki for entry COc1cccc(F)c1O[C@@H](c1cccc(F)c1)[C@@H]1CNCCO1 [Example 50, hydrochloride]
Result string: 1070

Query string: # return recorded Ki for entry COc1cccc([C@H](Oc2ccc(Cl)cc2OC)[C@@H]2CNCCO2)c1 [Example 61, hydrochloride]
Result string: 38

Query string: # return recorded Ki for entry COc1cc(Cl)ccc1O[C@@H](c1ccc(Cl)cc1)[C@@H]1CNCCO1 [Example 73, hydrochloride]
Result string: 14

Query string: # return recorded Ki for entry COc1cc(F)ccc1O[C@@H](c1ccc(Cl)cc1)[C@@H]1CNCCO1 [Example 71, hydrochloride]
Result string: 77.7

Query string: # return recorded Ki for entry Fc1cc(F)c(Cl)c(O[C@@H](c2ccccc2)[C@@H]2CNCCO2)c1 [Example 83, fumarate]
Result string: 222

Query string: # return recorded Ki for entry Fc1cccc([C@H](Oc2ccc(F)cc2Cl)[C@@H]2CNCCO2)c1 [Example 37, hydrochloride]
Result string: 52.2
